# System: C3H strain mice
# test: Hair growth on clipped back skin, repeat with minoxidil control, Example 5
# Assay type: in vivo
# experimental-conditions: 0.01%; Week 5
property-measured: Level of hair growth (unaided visual inspection)

compound | tested-on | numeric-result
CC1(C)[C@H](C(=O)O[C@H](C#N)c2cccc(Oc3ccccc3)c2)[C@@H]1C=C(Br)Br | C3H strain mice | 1
CC1(C)C(C=C(Cl)Cl)C1C(=O)OC(C#N)c1cccc(Oc2ccccc2)c1 (stereo not shown) | C3H strain mice | 0
CC1(C)C(C=C(Cl)Cl)C1C(=O)OCc1cccc(Oc2ccccc2)c1 (stereo not shown) | C3H strain mice | 0
CC(C)C(C(=O)OC(C#N)c1cccc(Oc2ccccc2)c1)c1ccc(Cl)cc1 (stereo not shown) [Fenvalerate, fenvalerate] | C3H strain mice | 0

Numbers sourced from patent US20010027213A1.
